Item-by-item account of Ki
# tested on: 5-HT7A (Homo sapiens, UniProt P34969)
# Sequence (P34969 1-445 isoform P34969-2): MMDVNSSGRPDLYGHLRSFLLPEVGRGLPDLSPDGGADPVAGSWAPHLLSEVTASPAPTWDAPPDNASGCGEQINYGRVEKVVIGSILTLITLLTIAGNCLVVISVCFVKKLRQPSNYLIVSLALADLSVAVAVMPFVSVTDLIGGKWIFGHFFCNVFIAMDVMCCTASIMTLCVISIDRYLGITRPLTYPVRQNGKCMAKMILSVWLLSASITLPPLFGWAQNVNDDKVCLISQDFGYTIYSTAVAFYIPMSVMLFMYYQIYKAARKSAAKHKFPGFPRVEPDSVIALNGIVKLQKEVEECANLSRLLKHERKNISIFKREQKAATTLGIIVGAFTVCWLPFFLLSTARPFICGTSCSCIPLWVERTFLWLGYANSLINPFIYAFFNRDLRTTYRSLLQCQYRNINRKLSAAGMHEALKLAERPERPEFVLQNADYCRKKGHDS
# test: PDSP radioligand displacement binding
# study conditions: average of three independent trials
parameter: Ki (nM)

{"chemical structure": "C/C=C1/CN2CC[C@]34C(=C(C(=O)OC)[C@H]1C[C@H]23)Nc1ccc(Br)cc14", "result": 1520}
{"chemical structure": "C/C=C1/CN2CC[C@]34C(=C(C(=O)OC)[C@H]1C[C@H]23)Nc1ccc(I)cc14", "result": 1380}

---

# tested on: μOR (Homo sapiens, UniProt P35372)
# Construct: host or cells: CHO-K1
# Sequence (P35372 whole entry): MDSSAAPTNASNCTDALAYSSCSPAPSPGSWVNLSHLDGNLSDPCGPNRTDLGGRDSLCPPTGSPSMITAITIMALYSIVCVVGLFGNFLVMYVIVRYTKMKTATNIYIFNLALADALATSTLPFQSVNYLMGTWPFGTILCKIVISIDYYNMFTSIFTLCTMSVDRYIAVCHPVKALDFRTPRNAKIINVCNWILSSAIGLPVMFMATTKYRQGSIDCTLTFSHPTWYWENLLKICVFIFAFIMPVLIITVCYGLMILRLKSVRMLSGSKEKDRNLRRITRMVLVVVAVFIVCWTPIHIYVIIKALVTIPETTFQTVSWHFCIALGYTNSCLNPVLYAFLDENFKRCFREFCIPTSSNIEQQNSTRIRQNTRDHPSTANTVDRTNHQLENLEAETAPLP
# test: cell-based
# Type: cell-based
# study conditions: read-out: μOR cAMP inhibition EC50
pEC50: −log10 of the molar value.

{"compound": "CC[C@@H]1CN2CC[C@]34C(=C(C(=O)OC)[C@H]1C[C@H]23)Nc1ccccc14 [Compound 13, 19,20-dihydroakuammicine]", "tested on": "μOR (Homo sapiens, UniProt P35372)", "lt gt eq": "<", "pEC50": 5.00}
{"compound": "C/C=C1/CN2CC[C@]34C(=C(C(=O)OC)[C@H]1C[C@H]23)Nc1ccc(-c2ccccc2)cc14 [Compound 4, 10-Phenylakuammicine]", "tested on": "μOR (Homo sapiens, UniProt P35372)", "lt gt eq": "=", "pEC50": 6.11}
{"compound": "C=CC[N+]12CCC34C(=C(C(=O)OC)C(CC31)C(=CC)C2)Nc1ccc(Br)cc14 (stereo not drawn) [Compound 24, 10-Bromo-N-4-allylakuammicine]", "tested on": "μOR (Homo sapiens, UniProt P35372)", "lt gt eq": "<", "pEC50": 5.00}
{"compound": "CCC1CN2CCC34c5ccccc5NC3C(C(=O)OC)C1CC24 (stereo not drawn) [Compound 15, 2,16,19,20-tetrahydroakuammicine]", "tested on": "μOR (Homo sapiens, UniProt P35372)", "lt gt eq": "<", "pEC50": 5.00}
{"compound": "C/C=C1/CN2CC[C@]34C(=C(C(=O)OC)[C@H]1C[C@H]23)Nc1ccc(-c2ccoc2)cc14 [Compound 5, 10-(3-Furanyl)akuammicine]", "tested on": "μOR (Homo sapiens, UniProt P35372)", "lt gt eq": "=", "pEC50": 6.14}
{"compound": "CC=C1C[N+]2(CC3CC3)CCC34C(=C(C(=O)OC)C1CC32)Nc1ccccc14 (stereo not drawn) [Compound 19, N-4-Cyclopropylmethylakuammicine]", "tested on": "μOR (Homo sapiens, UniProt P35372)", "lt gt eq": "<", "pEC50": 5.00}
{"compound": "C/C=C1/C[N+]2(Cc3ccccc3)CC[C@]34C(=C(C(=O)OC)[C@H]1C[C@@H]32)Nc1ccccc14 (stereo partly drawn) [Compound 20, N-4-Benzylakuammicine]", "tested on": "μOR (Homo sapiens, UniProt P35372)", "lt gt eq": "=", "pEC50": 5.64}
{"compound": "C/C=C1/CN2CC[C@]34c5ccccc5NC3C(C(=O)OC)[C@H]1C[C@H]24 (stereo partly drawn) [Compound 14, 2,16-dihydroakuammicine]", "tested on": "μOR (Homo sapiens, UniProt P35372)", "lt gt eq": "<", "pEC50": 5.00}
{"compound": "C/C=C1/CN2CC[C@]34C(=C(C(=O)OC)[C@H]1C[C@H]23)Nc1ccc(-c2ccsc2)cc14 [Compound 6, 10-(3-Thienyl)akuammicine]", "tested on": "μOR (Homo sapiens, UniProt P35372)", "lt gt eq": "=", "pEC50": 6.08}
{"compound": "CC=C1C[N+]2(C)CCC34C(=C(C(=O)OC)C1CC32)Nc1ccc(Br)cc14 (stereo not drawn) [Compound 23, 10-Bromo-N-4-methylakuammicine]", "tested on": "μOR (Homo sapiens, UniProt P35372)", "lt gt eq": "<", "pEC50": 5.00}
{"compound": "CCC1CN2CCC34C(=C(C(=O)OC)C1CC23)Nc1ccc(Br)cc14 (stereo not drawn) [Compound 27, 10-Bromo-19,20-dihydroakuammicine]", "tested on": "μOR (Homo sapiens, UniProt P35372)", "lt gt eq": "=", "pEC50": 5.96}
{"compound": "C/C=C1/CN2CC[C@]34C(=C(C(=O)OC)[C@H]1C[C@H]23)Nc1ccc(I)cc14 [Compound 3, 10-Iodoakuammicine]", "tested on": "μOR (Homo sapiens, UniProt P35372)", "lt gt eq": "=", "pEC50": 4.39}
